Assay: Inhibition of [3H]nitrendipine binding to L-type calcium channel in guinea pig ventricular myocardium membranes
Endpoint: Kd (nM)

Recorded Kd, per entry:
{"Compound": "COC(=O)C1=C(C)N=C(SC)NC1c1cccc([N+](=O)[O-])c1 (stereo unspecified)", "Kd [nM]": 120}
{"Compound": "CCC(C)OC(=O)C1=C(C)NC(SC)=NC1c1cccc([N+](=O)[O-])c1 (stereo unspecified)", "Kd [nM]": 2.6}
{"Compound": "CCOC(=O)C1=C(C)N=C(OC)NC1c1cccc([N+](=O)[O-])c1 (stereo unspecified)", "Kd [nM]": 105}
{"Compound": "CCOC(=O)C1=C(C)NC(N(C)C)=NC1c1cccc([N+](=O)[O-])c1 (stereo unspecified)", "Kd [nM]": 3400}

(1) CCOC(=O)C1=C(C)NC(SC)=NC1c1ccccc1C(F)(F)F (stereo unspecified)
(2) CSC1=NC(c2cccc([N+](=O)[O-])c2)C(C(=O)OC(C)C)=C(C)N1 (stereo unspecified)
Between 1 and 2 , which one shows the smaller Kd number? Answer = label.
2
(2: 12 nM, 1: 35 nM)

All figures here come from BindingDB's records for doi:10.1021/jm00167a035.
